The origin of these recorded values is PubChem BioAssay AID686971.

# test details: qHTS for induction of synthetic lethality in tumor cells producing 2HG: qHTS for the HT-1080-IDH1KD cell line
# conditions used: HT-1080 IDH1 knockdown viability, ATP luminescence, 48 h; series mostly up to 46.1 µM
# Excerpt: Unbiased genomic sequencing for 22 glioma genomes found recurrent mutation of IDH1 on chromosome 2q33, a gene encoding the cytosolic isoform of IIDH1 associated with the tri-carboxylic acid cycle (TCA) that catalyzes the oxidative decarboxylation of isocitrate, yielding alpha-ketoglutarate and CO2 via NADP+ to NADPH conversion. […] Concentration-response curves were fitted to the signals arising from the resulting luminescence. […]
Out of some 360,000 compounds screened, about 7,500 (2.1%) were called active. Roughly 8% stayed inconclusive and do not appear here. The call rests on the fitted dose curve; in most records, active means well fitted cell-killing curve with a large enough effect; inconclusive means small, poorly fitted or top-dose-only effect, or effect the other way, or another doubt; inactive means no such curve, though single readings can be large or run the other way. This is one part of a sample in which actives are shown more often than they occur.
Choose the fitting class; nothing outside Yes for active, No for inactive is accepted.

Worked examples, 3 compounds total:
CCc1nc2c(OCCOc3ccccc3)cccn2c1N(C=O)Cc1ccc(OC)cc1    No
Cc1ccc(-c2ccc(CN3C(C(C)C)C(=O)N(Cc4cn(CCC5OCCCO5)nn4)CCS3(=O)=O)cc2)cc1 (stereo not given)    No
CCOc1ccc(NC(=O)c2nc(SCC)ncc2Cl)cc1    No

q: How was CCCCCCn1c(=O)n2n(c1=O)C[C@]1(OC(=O)NCc3ccc(OC)c(OC)c3)CN(S(=O)(=O)c3ccc(C)cc3)C[C@]1(O)C2 classified in this test?
a: No

q: How was Cc1ccccc1NC(=O)Cc1nc(COC(=O)c2ccc(C(F)(F)F)cc2)cs1 classified in this test?
a: No

q: How was O=[N+]([O-])c1ccc(CN2CC(N3CC=CC3)CS2(=O)=O)cc1 (stereo not given) classified in this test?
a: No
